# system name: human ether-à-go-go-related gene (hERG) potassium channel (human, UniProt Q12809);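 note: peak tail current of the secondary pulse compared with the same well before compound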
# Sequence (Q12809 whole entry, looked up): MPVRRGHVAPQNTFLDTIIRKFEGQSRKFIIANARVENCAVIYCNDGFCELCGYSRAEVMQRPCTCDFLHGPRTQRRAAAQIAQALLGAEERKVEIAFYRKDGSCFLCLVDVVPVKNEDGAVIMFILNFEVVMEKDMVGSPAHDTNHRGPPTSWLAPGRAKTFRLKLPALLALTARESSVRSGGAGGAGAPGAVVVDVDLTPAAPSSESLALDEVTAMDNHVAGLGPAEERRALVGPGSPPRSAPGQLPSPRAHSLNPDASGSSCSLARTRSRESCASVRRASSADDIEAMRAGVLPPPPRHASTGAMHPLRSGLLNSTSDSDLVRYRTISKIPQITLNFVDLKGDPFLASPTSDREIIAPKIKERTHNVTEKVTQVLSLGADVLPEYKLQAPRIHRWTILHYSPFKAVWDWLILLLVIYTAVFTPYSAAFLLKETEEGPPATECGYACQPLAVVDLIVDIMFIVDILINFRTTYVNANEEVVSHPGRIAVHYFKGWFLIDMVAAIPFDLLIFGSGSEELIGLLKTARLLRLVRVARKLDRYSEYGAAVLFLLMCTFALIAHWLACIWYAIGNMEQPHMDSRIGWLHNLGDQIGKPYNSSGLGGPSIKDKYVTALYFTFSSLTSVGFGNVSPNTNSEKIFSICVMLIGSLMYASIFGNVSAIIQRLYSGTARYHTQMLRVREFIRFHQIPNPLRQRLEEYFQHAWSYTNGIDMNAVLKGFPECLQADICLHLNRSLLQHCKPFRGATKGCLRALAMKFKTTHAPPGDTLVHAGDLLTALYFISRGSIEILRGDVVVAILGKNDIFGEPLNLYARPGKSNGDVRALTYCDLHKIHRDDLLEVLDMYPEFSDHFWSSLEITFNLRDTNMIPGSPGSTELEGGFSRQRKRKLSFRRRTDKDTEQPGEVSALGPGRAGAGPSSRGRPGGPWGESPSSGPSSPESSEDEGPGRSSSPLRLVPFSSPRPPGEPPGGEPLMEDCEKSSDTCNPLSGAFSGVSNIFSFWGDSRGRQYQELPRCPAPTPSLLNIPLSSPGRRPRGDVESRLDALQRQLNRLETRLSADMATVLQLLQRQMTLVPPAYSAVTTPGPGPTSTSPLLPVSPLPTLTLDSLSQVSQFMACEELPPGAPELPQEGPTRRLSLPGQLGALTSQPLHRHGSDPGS
# assay notes: primary screen, population patch clamp on CHO cells stably expressing hERG; higher = less effect of the substance
# Description: Briefly, Chinese hamster ovary (CHO) cells stably expressing the hERG channel were dislodged from tissue culture flasks and dispensed into PPC plates. […] During the recording, background leak currents were estimated by a 100 ms step to -80 mV from an initial holding potential of -70 mV and subtracted from the subsequent current measurement. The campaign was conducted in two phases using slight differences in recording protocol. […]
In all, about 310,000 compounds went through this assay and about 14,000 (4.5%) showed an effect of 50% or more. The effect is printed as a negative number. The sample holds strong results, similar compounds and a random draw of the others, so the mix is not that of the screen.
// reported hERG current change (%, negative = inhibition) at 10uM per item
Give your result in % as a bare value.

Please review the following examples before continuing.
molecule | recorded measurement
COc1ccc2c(Cl)c(C(N)=O)sc2c1 | 1.91
CCN(CC)S(=O)(=O)c1ccc(-c2nnc(SCC(C)=O)o2)cc1 | -8.48
Cc1ncc(CN2CCCC(C(=O)c3sccc3C)C2)s1 (stereo not drawn) | 24.7
CC(C)=CCCC(C)CN1CCC(O)CC1 (stereo not drawn) | -2.96
COc1ccc(-c2cc(C(=O)Nc3c(C)n(C)n(-c4ccccc4)c3=O)no2)cc1 | 6.42

Lab note: human ether-à-go-go-related gene (hERG) potassium channel (human, UniProt Q12809) assay, enter hERG current change (%, negative = inhibition) at 10uM for CCOc1nc(CC(C)C)c2c(c1C#N)CC(C)(C)OC2 here
1.14

Lab note: human ether-à-go-go-related gene (hERG) potassium channel (human, UniProt Q12809) assay, enter hERG current change (%, negative = inhibition) at 10uM for CCCCn1nnnc1SCC(=O)NNC(=O)C1CCCCC1 here
-1.79

Lab note: human ether-à-go-go-related gene (hERG) potassium channel (human, UniProt Q12809) assay, enter hERG current change (%, negative = inhibition) at 10uM for COC(=O)c1cc2c(cc1NC(=O)CSCCc1ccccn1)OCO2 here
7.82

Lab note: human ether-à-go-go-related gene (hERG) potassium channel (human, UniProt Q12809) assay, enter hERG current change (%, negative = inhibition) at 10uM for CCCCc1ccc(N=N/C(C(=O)Nc2ccccc2OC)=C(/C)O)cc1 here
-8.51

Lab note: human ether-à-go-go-related gene (hERG) potassium channel (human, UniProt Q12809) assay, enter hERG current change (%, negative = inhibition) at 10uM for COc1ccc(CC(=O)NCCS(=O)(=O)N2CCN(c3ccccc3)CC2)cc1 here
12.7

Lab note: human ether-à-go-go-related gene (hERG) potassium channel (human, UniProt Q12809) assay, enter hERG current change (%, negative = inhibition) at 10uM for COc1ccc(N=c2cc(-c3ccc(OC)cc3)oc3ccccc23)cc1 here
4.41

Lab note: human ether-à-go-go-related gene (hERG) potassium channel (human, UniProt Q12809) assay, enter hERG current change (%, negative = inhibition) at 10uM for CCN1CCN(C(=O)C2CCN(S(=O)(=O)c3ccc4c(c3)NC(=O)C(C)S4)CC2)CC1 (stereo not drawn) here
14.1

Lab note: human ether-à-go-go-related gene (hERG) potassium channel (human, UniProt Q12809) assay, enter hERG current change (%, negative = inhibition) at 10uM for Cc1ccsc1C(=O)C1CCCN(Cc2cccn2-c2ccccn2)C1 (stereo not drawn) here
-75.8

Lab note: human ether-à-go-go-related gene (hERG) potassium channel (human, UniProt Q12809) assay, enter hERG current change (%, negative = inhibition) at 10uM for CC1CN(CC(O)COc2ccc(C(C)C)cc2)CC(C)O1.Cl (stereo not drawn) here
-14.3

Lab note: human ether-à-go-go-related gene (hERG) potassium channel (human, UniProt Q12809) assay, enter hERG current change (%, negative = inhibition) at 10uM for Cc1ccc(NC(=O)C2CCN(S(=O)(=O)c3ccc4c(c3)NC(=O)C(C)S4)CC2)c(C)c1 (stereo not drawn) here
-3.06

Lab note: human ether-à-go-go-related gene (hERG) potassium channel (human, UniProt Q12809) assay, enter hERG current change (%, negative = inhibition) at 10uM for CCCCc1ccc(N=N/C(C(=O)Nc2cc(OC)c(NC(C)=O)cc2OC)=C(/C)O)cc1 here
14.2
